protocol details: physchem
Assay type: physicochemical
experimental parameters: pH 7, aqueous with cosolvent or surfactant or cyclodextrin
Where a SMILES comes first, the peptide text is derived from it. [ ]: non-standard residue; d: D form. The star is where a group is joined. dLys(Me3) = C[N+](C)(C)CCCC[C@@H](N)C(=O)O; NHCH2CH2OH = OCCN*; For = O=C*
Below: a set of entries, each annotated with reported solubility kinetic at 30 min.

# compound, solubility kinetic at 30 min (µM)
measured = [
    ("CC(C)C[C@@H](NC(=O)[C@H](C)NC(=O)CNC(=O)[C@@H](NC=O)C(C)C)C(=O)N[C@@H](C)C(=O)N[C@@H](C(=O)N[C@H](C(=O)N[C@@H](C(=O)N[C@@H](Cc1c[nH]c2ccccc12)C(=O)N[C@H](CC(C)C)C(=O)N[C@@H](Cc1c[nH]c2ccccc12)C(=O)N[C@H](CC(C)C)C(=O)N[C@@H](Cc1c[nH]c2ccccc12)C(=O)N[C@H](CCCC[N+](C)(C)C)C(=O)N[C@@H](Cc1c[nH]c2ccccc12)C(=O)NCCO)C(C)C)C(C)C)C(C)C [14M] (For-VGA[dL]A[dV]V[dV]W[dL]W[dL]W[dLys(Me3)]W-NHCH2CH2OH)", 3.6),
    ("CC(C)C[C@@H](NC(=O)[C@H](C)NC(=O)CNC(=O)[C@@H](NC=O)C(C)C)C(=O)N[C@@H](C)C(=O)N[C@@H](C(=O)N[C@H](C(=O)N[C@@H](C(=O)N[C@@H](Cc1c[nH]c2ccccc12)C(=O)N[C@H](CCCC[N+](C)(C)C)C(=O)N[C@@H](Cc1c[nH]c2ccccc12)C(=O)N[C@H](CC(C)C)C(=O)N[C@@H](Cc1c[nH]c2ccccc12)C(=O)N[C@H](CC(C)C)C(=O)N[C@@H](Cc1c[nH]c2ccccc12)C(=O)NCCO)C(C)C)C(C)C)C(C)C [10M] (For-VGA[dL]A[dV]V[dV]W[dLys(Me3)]W[dL]W[dL]W-NHCH2CH2OH)", 4.3),
]

====

System: human red blood cells (hRBCs)
protocol details: K+ leakage from hRBCs (flame atomic emission)
Assay type: cell-based
measurement type: peptide concentration for 50% K+ ion leakage, fold greater than wild-type Gramicidin A

# molecule, measured
records = [
    ("CC(C)C[C@@H](NC(=O)[C@H](C)NC(=O)CNC(=O)[C@@H](NC=O)C(C)C)C(=O)N[C@@H](C)C(=O)N[C@@H](C(=O)N[C@H](C(=O)N[C@@H](C(=O)N[C@@H](Cc1c[nH]c2ccccc12)C(=O)N[C@H](CCCCN)C(=O)N[C@@H](Cc1c[nH]c2ccccc12)C(=O)N[C@H](CC(C)C)C(=O)N[C@@H](Cc1c[nH]c2ccccc12)C(=O)N[C@H](CC(C)C)C(=O)N[C@@H](Cc1c[nH]c2ccccc12)C(=O)NCCO)C(C)C)C(C)C)C(C)C (racemic) [gA-1]", "~100 fold"),
]

====

protocol details: physchem
Assay type: physicochemical
measurement type: water solubility, fold higher than wild-type Gramicidin A

# compound, measured
data = [
    ("CC(C)C[C@@H](NC(=O)[C@H](C)NC(=O)CNC(=O)[C@@H](NC=O)C(C)C)C(=O)N[C@@H](C)C(=O)N[C@@H](C(=O)N[C@H](C(=O)N[C@@H](C(=O)N[C@@H](Cc1c[nH]c2ccccc12)C(=O)N[C@H](CCCCN)C(=O)N[C@@H](Cc1c[nH]c2ccccc12)C(=O)N[C@H](CC(C)C)C(=O)N[C@@H](Cc1c[nH]c2ccccc12)C(=O)N[C@H](CCCCN)C(=O)N[C@@H](Cc1c[nH]c2ccccc12)C(=O)NCCO)C(C)C)C(C)C)C(C)C (racemic)", "~740 fold"),
    ("CC(C)C[C@@H](NC(=O)[C@H](C)NC(=O)CNC(=O)[C@@H](NC=O)C(C)C)C(=O)N[C@@H](C)C(=O)N[C@@H](C(=O)N[C@H](C(=O)N[C@@H](C(=O)N[C@@H](Cc1c[nH]c2ccccc12)C(=O)N[C@H](CCCNC(=N)N)C(=O)N[C@@H](Cc1c[nH]c2ccccc12)C(=O)N[C@H](CCCNC(=N)N)C(=O)N[C@@H](Cc1c[nH]c2ccccc12)C(=O)N[C@H](CCCNC(=N)N)C(=O)N[C@@H](Cc1c[nH]c2ccccc12)C(=O)NCCO)C(C)C)C(C)C)C(C)C (racemic)", "~800 fold"),
    ("CC(C)C[C@@H](NC(=O)[C@H](C)NC(=O)CNC(=O)[C@@H](NC=O)C(C)C)C(=O)N[C@@H](C)C(=O)N[C@@H](C(=O)N[C@H](C(=O)N[C@@H](C(=O)N[C@@H](Cc1c[nH]c2ccccc12)C(=O)N[C@H](CC(C)C)C(=O)N[C@@H](Cc1c[nH]c2ccccc12)C(=O)N[C@H](CC(C)C)C(=O)N[C@@H](Cc1c[nH]c2ccccc12)C(=O)N[C@H](CCCCN)C(=O)N[C@@H](Cc1c[nH]c2ccccc12)C(=O)NCCO)C(C)C)C(C)C)C(C)C (racemic)", "~200 fold"),
    ("CC(C)C[C@@H](NC(=O)[C@H](C)NC(=O)CNC(=O)[C@@H](NC=O)C(C)C)C(=O)N[C@@H](C)C(=O)N[C@@H](C(=O)N[C@H](C(=O)N[C@@H](C(=O)N[C@@H](Cc1c[nH]c2ccccc12)C(=O)N[C@H](CCCCN)C(=O)N[C@@H](Cc1c[nH]c2ccccc12)C(=O)N[C@H](CCCCN)C(=O)N[C@@H](Cc1c[nH]c2ccccc12)C(=O)N[C@H](CCCCN)C(=O)N[C@@H](Cc1c[nH]c2ccccc12)C(=O)NCCO)C(C)C)C(C)C)C(C)C (racemic)", "~1500 fold"),
    ("CC(C)C[C@@H](NC(=O)[C@H](C)NC(=O)CNC(=O)[C@@H](NC=O)C(C)C)C(=O)N[C@@H](C)C(=O)N[C@@H](C(=O)N[C@H](C(=O)N[C@@H](C(=O)N[C@@H](Cc1c[nH]c2ccccc12)C(=O)N[C@H](CCCCN)C(=O)N[C@@H](Cc1c[nH]c2ccccc12)C(=O)N[C@H](CCCCN)C(=O)N[C@@H](Cc1c[nH]c2ccccc12)C(=O)N[C@H](CC(C)C)C(=O)N[C@@H](Cc1c[nH]c2ccccc12)C(=O)NCCO)C(C)C)C(C)C)C(C)C (racemic)", "~740 fold"),
    ("CC(C)C[C@@H](NC(=O)[C@H](C)NC(=O)CNC(=O)[C@@H](NC=O)C(C)C)C(=O)N[C@@H](C)C(=O)N[C@@H](C(=O)N[C@H](C(=O)N[C@@H](C(=O)N[C@@H](Cc1c[nH]c2ccccc12)C(=O)N[C@H](CCCCN)C(=O)N[C@@H](Cc1c[nH]c2ccccc12)C(=O)N[C@H](CC(C)C)C(=O)N[C@@H](Cc1c[nH]c2ccccc12)C(=O)N[C@H](CC(C)C)C(=O)N[C@@H](Cc1c[nH]c2ccccc12)C(=O)NCCO)C(C)C)C(C)C)C(C)C (racemic)", "~200 fold"),
]

====

System: Bacillus subtilis (ATCC 663)
experimental parameters: B. subtilis

# molecule, MIC relative to wild-type Gramicidin A
data = [
    ("CC(C)C[C@@H](NC(=O)[C@H](C)NC(=O)CNC(=O)[C@@H](NC=O)C(C)C)C(=O)N[C@@H](C)C(=O)N[C@@H](C(=O)N[C@H](C(=O)N[C@@H](C(=O)N[C@@H](Cc1c[nH]c2ccccc12)C(=O)N[C@H](CCCCN)C(=O)N[C@@H](Cc1c[nH]c2ccccc12)C(=O)N[C@H](CC(C)C)C(=O)N[C@@H](Cc1c[nH]c2ccccc12)C(=O)N[C@H](CCCCN)C(=O)N[C@@H](Cc1c[nH]c2ccccc12)C(=O)NCCO)C(C)C)C(C)C)C(C)C (racemic)", "~2 fold"),
]

====

Below, each of the compounds is paired with its reported KC50 (50% K+ ion leakage relative to 1% TritonX-100) value.
Tested on: human red blood cells (hRBCs)
protocol details: K+ leakage from hRBCs (flame atomic emission)
Type: cell-based
Method: The rest of supernatant (1.2 mL) from each sample prepared as described in the hemoglobin leakage assay was transferred into a new sterile eppendorf tube and subject to the K+ concentration measurement using a flame-atomic emission spectrometer (λem=766.5 nm, Perkin Elmer Atomic absorption Spectrometer 3100, acetylene/air flame). Three readings were taken for each sample and averaged as final results. […]
measurement type: KC50 (50% K+ ion leakage relative to 1% TritonX-100)

# compound, measured
measured = [
    ("CC(C)C[C@@H](NC(=O)[C@H](C)NC(=O)CNC(=O)[C@@H](NC=O)C(C)C)C(=O)N[C@@H](C)C(=O)N[C@@H](C(=O)N[C@H](C(=O)N[C@@H](C(=O)N[C@@H](Cc1c[nH]c2ccccc12)C(=O)N[C@H](CC(C)C)C(=O)N[C@@H](Cc1c[nH]c2ccccc12)C(=O)N[C@H](CC(C)C)C(=O)N[C@@H](Cc1c[nH]c2ccccc12)C(=O)N[C@H](CCCCN)C(=O)N[C@@H](Cc1c[nH]c2ccccc12)C(=O)NCCO)C(C)C)C(C)C)C(C)C (racemic)", "0.01 µM"),
    ("CC(C)C[C@@H](NC(=O)[C@H](C)NC(=O)CNC(=O)[C@@H](NC=O)C(C)C)C(=O)N[C@@H](C)C(=O)N[C@@H](C(=O)N[C@H](C(=O)N[C@@H](C(=O)N[C@@H](Cc1c[nH]c2ccccc12)C(=O)N[C@H](CCCCN)C(=O)N[C@@H](Cc1c[nH]c2ccccc12)C(=O)N[C@H](CC(C)C)C(=O)N[C@@H](Cc1c[nH]c2ccccc12)C(=O)N[C@H](CCCCN)C(=O)N[C@@H](Cc1c[nH]c2ccccc12)C(=O)NCCO)C(C)C)C(C)C)C(C)C (racemic)", "5~10 μM"),
    ("CC(C)C[C@@H](NC(=O)[C@H](C)NC(=O)CNC(=O)[C@@H](NC=O)C(C)C)C(=O)N[C@@H](C)C(=O)N[C@@H](C(=O)N[C@H](C(=O)N[C@@H](C(=O)N[C@@H](Cc1c[nH]c2ccccc12)C(=O)N[C@H](CCCCN)C(=O)N[C@@H](Cc1c[nH]c2ccccc12)C(=O)N[C@H](CCCCN)C(=O)N[C@@H](Cc1c[nH]c2ccccc12)C(=O)N[C@H](CC(C)C)C(=O)N[C@@H](Cc1c[nH]c2ccccc12)C(=O)NCCO)C(C)C)C(C)C)C(C)C (racemic)", "5~10 μM"),
]

FYI, the data here is from patent US9243037B2.
